For each entry below, report its tissue uptake at 1 h value.
Assay: in vivo
Conditions: male, NODSCID 1L2RγKO, mouse, iv, total radioactivity, Testes uptake
Give the value in %ID/g but do not write %ID/g after it.

Documented tissue uptake at 1 h of O=C(O)CCCCC(NC(=O)N[C@@H](CCCCNC(=O)[C@H](Cc1c2ccccc2cc2ccccc12)NC(=O)[C@H]1CC[C@H](CNC(=O)CN2CCN(CC(=O)O)CCN(CC(=O)O)CCN(CC(=O)O)CC2)CC1)C(=O)O)C(=O)O (single isomer, unassigned) [68Ga-HTK03189A, metal not drawn] : 0.23

Just so you know, measured tissue uptake at 1 h for O=C(O)C[C@H](NC(=O)N[C@@H](CCCCNC(=O)[C@H](Cc1c2ccccc2cc2ccccc12)NC(=O)[C@H]1CC[C@H](CNC(=O)CN2CCN(CC(=O)O)CCN(CC(=O)O)CCN(CC(=O)O)CC2)CC1)C(=O)O)C(=O)O [68Ga-HTK03161, metal not drawn] came out at 0.54

Lookup result for O=C(O)CCC[C@H](NC(=O)N[C@@H](CCCCNC(=O)[C@H](Cc1c2ccccc2cc2ccccc12)NC(=O)c1ccc(NC(=O)CN2CCN(CC(=O)O)CCN(CC(=O)O)CCN(CC(=O)O)CC2)cc1)C(=O)O)C(=O)O [68Ga-HTK04041, metal not drawn] ; measured tissue uptake at 1 h: 0.31

// O=C(O)CCC[C@H](NC(=O)N[C@@H](CCCCNC(=O)[C@H](Cc1cccc(I)c1)NC(=O)[C@H]1CC[C@H](CNC(=O)CN2CCN(CC(=O)O)CCN(CC(=O)O)CCN(CC(=O)O)CC2)CC1)C(=O)O)C(=O)O [68Ga-HTK04053, metal not drawn] : tissue uptake at 1 h value = 0.11

Recorded tissue uptake at 1 h (molecule O=C(O)CN1CCN(CC(=O)O)CCN(CC(=O)NC[C@H]2CC[C@H](C(=O)N[C@@H](Cc3c4ccccc4cc4ccccc34)C(=O)NCCCC[C@H](NC(=O)N[C@@H](C[C@H](F)C(=O)O)C(=O)O)C(=O)O)CC2)CCN(CC(=O)O)CC1 [68Ga-HTK04040, metal not drawn] ): 0.74

The molecule identified as O=C(O)CSC[C@H](NC(=O)N[C@@H](CCCCNC(=O)[C@H](Cc1c2ccccc2cc2ccccc12)NC(=O)[C@H]1CC[C@H](CNC(=O)CN2CCN(CC(=O)O)CCN(CC(=O)O)CCN(CC(=O)O)CC2)CC1)C(=O)O)C(=O)O [68Ga-HTK03177, metal not drawn] registered its tissue uptake at 1 h at 0.25

Recorded result, O=C(O)CCC[C@H](NC(=O)N[C@@H](CCCCNC(=O)[C@H](Cc1c2ccccc2cc2ccccc12)NC(=O)Cc1ccc(CNC(=O)CN2CCN(CC(=O)O)CCN(CC(=O)O)CCN(CC(=O)O)CC2)cc1)C(=O)O)C(=O)O [68Ga-HTK04036, metal not drawn] , tissue uptake at 1 h: 0.25
